Origin of measurements: patent US20110230476A1

# System: Phospho-Akt(Ser473)
# assay text: Dose response in SKOV3 cells as determined by Western blot
# Format: cell-based
# assay context: Homo sapiens, SK-OV-3, 1 hr, Phospho-Akt normalized to total Akt, read-out: Immunoblot
# Method: Dose Response in SKOV3 Cells as Determined by Western Blot SKOV3 cells were plated in SKOV3 Growth Media (DMEM supplemented with 10% FBS and pen/strep) at a density of 4×10^5 cells per well of 12 well plates. Twenty four hours later the media was removed and replaced with 1 ml media containing test compound and 0.1% DMSO and cells were returned to the incubator for 1 hr. […]
value kind: EC50

Reference set, count: 6
[[record]]
compound_structure_string = "C=CC(=O)Nc1ccc(OCc2cc3nc(-c4cnc(N)nc4)nc(N4CCOCC4)c3s2)cc1"
value_kind = "EC50"
measurement = "≤ 10 nM"

[[record]]
compound_structure_string = "C/C=C/C(=O)CCC(=O)N1CCN(Cc2cc3nc(-c4cccc5[nH]ncc45)nc(N4CCOCC4)c3s2)CC1"
value_kind = "EC50"
measurement = "10 to 100 nM"

[[record]]
compound_structure_string = "C=CC(=O)Nc1ccc(CCNC(=O)c2cc3nc(-c4cccc5[nH]ncc45)nc(N4CCOCC4)c3s2)cc1"
value_kind = "EC50"
measurement = "≤ 10 nM"

[[record]]
compound_structure_string = "C=CC(=O)Nc1ccc(CCNC(=O)c2cc3nc(-c4cnc(N)nc4)nc(N4CCOCC4)c3s2)cc1"
value_kind = "EC50"
measurement = "≤ 10 nM"

[[record]]
compound_structure_string = "C=CC(=O)Nc1ccc(CN(C)Cc2cc3nc(-c4cnc(N)nc4)nc(N4CCOCC4)c3s2)cc1"
value_kind = "EC50"
measurement = "10 to 100 nM"

[[record]]
compound_structure_string = "C=CC(=O)Nc1ccc(COCc2cc3nc(-c4cnc(N)nc4)nc(N4CCOCC4)c3s2)cc1"
value_kind = "EC50"
measurement = "≤ 10 nM"


--- query ---
Tell me measured EC50 for C/C=C/C(=O)CCCC(=O)N1CCN(Cc2cc3nc(-c4cccc5[nH]ncc45)nc(N4CCOCC4)c3s2)CC1 please.
10 to 100 nM

====

# system name: PI3Kα (p110α/p85α) (Homo sapiens, UniProt P42336)
# Sequence (P42336 whole entry): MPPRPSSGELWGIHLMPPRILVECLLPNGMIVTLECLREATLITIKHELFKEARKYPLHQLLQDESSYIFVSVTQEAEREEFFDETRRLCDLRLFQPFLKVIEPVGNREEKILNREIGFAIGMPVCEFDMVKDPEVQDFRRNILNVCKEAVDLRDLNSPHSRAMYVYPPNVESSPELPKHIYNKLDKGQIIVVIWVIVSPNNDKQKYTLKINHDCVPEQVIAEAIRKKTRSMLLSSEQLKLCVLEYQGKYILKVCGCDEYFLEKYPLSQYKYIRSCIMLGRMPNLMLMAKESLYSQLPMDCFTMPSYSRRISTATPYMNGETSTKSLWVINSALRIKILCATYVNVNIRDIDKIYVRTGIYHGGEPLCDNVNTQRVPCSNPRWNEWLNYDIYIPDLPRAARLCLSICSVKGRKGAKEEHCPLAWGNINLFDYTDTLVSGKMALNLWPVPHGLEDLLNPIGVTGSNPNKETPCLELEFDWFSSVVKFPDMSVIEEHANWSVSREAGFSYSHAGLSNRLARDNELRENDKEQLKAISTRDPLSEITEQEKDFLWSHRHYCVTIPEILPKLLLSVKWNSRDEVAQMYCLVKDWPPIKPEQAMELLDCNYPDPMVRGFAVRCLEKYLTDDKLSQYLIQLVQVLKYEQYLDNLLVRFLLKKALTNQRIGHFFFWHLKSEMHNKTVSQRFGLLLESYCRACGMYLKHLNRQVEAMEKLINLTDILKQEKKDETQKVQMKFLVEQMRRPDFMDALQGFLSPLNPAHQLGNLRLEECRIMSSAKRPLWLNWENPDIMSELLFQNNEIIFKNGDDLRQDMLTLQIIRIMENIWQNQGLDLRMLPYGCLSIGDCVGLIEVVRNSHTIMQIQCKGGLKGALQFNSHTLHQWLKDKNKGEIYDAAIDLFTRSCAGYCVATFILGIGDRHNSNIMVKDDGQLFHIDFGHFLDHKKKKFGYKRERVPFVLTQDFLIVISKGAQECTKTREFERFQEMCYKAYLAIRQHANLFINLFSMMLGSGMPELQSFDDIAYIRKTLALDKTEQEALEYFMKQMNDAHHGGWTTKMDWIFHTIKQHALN
# Sequence (P27986 whole entry partner): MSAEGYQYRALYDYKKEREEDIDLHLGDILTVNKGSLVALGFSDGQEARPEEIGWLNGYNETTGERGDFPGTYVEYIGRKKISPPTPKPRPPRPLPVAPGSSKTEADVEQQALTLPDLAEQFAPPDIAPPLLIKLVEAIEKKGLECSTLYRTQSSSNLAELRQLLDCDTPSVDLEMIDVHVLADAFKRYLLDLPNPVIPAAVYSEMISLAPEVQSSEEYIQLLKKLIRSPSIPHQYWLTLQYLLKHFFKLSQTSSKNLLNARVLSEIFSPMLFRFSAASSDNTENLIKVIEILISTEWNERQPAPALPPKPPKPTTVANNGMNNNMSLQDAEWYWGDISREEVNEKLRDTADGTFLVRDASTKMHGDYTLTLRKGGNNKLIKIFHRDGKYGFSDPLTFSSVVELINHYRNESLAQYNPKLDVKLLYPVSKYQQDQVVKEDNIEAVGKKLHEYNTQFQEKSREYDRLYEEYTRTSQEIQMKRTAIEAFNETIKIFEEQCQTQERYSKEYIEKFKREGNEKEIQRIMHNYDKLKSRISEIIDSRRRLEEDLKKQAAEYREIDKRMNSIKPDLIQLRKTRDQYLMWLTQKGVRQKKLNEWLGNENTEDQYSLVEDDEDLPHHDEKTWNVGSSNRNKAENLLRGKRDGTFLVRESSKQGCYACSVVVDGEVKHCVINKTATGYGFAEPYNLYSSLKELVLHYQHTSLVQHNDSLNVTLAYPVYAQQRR
# assay text: HTRF assay, potency against active PI3Kα
# assay context: HTRF; [ATP]=50 μM, [di-C8-PIP2]=10 μM; 30 min pre-incubation; read-out: PI3Kα Inhibition
pIC50: −log10 of the molar value.
Reported pIC50 values are given for each entry in this list.

[[record]]
compound_structure_string = "C=CC(=O)Nc1ccc(CC(=O)N2CC=C(c3cc(-c4cnc(N)nc4)nc(N4CCOCC4)c3)CC2)cc1"
system_name = "PI3Kα (p110α/p85α) (Homo sapiens, UniProt P42336)"
measurement = "7.00 to 8.00"

[[record]]
compound_structure_string = "C=CC(=O)Nc1cccc(C(=O)N2CC=C(c3cc(-c4cnc(N)nc4)nc(N4CCOCC4)c3)CC2)c1"
system_name = "PI3Kα (p110α/p85α) (Homo sapiens, UniProt P42336)"
measurement = "6.00 to 7.00"

[[record]]
compound_structure_string = "C/C=C/C(=O)CCC(=O)NCc1ccc(-c2cc3nc(-c4cccc(O)c4)nc(N4CCOCC4)c3s2)cc1"
system_name = "PI3Kα (p110α/p85α) (Homo sapiens, UniProt P42336)"
measurement = "> 8.00"

[[record]]
compound_structure_string = "C=CC(=O)Nc1ccc(C(=O)N2CC=C(c3cc4nc(-c5cnc(N)nc5)nc(N5CCOCC5)c4s3)CC2)cc1"
system_name = "PI3Kα (p110α/p85α) (Homo sapiens, UniProt P42336)"
measurement = "7.00 to 8.00"


Tell me measured pIC50 for CC(C)=CC(=O)CCCC(=O)N1CC=C(c2cc3nc(-c4cnc(N)nc4)nc(C4=CCOCC4)c3s2)CC1 please.
7.00 to 8.00

Tell me measured pIC50 for CC(C)=CC(=O)CCc1ccc(C#Cc2cc(-c3cnc(N)nc3C)nc(N3CCOCC3)c2)cc1 please.
< 6.00

Tell me measured pIC50 for C/C=C/C(=O)CCC(=O)NCC(=O)N1CCN(Cc2cc3nc(-c4cccc5[nH]ncc45)nc(N4CCOCC4)c3s2)CC1 please.
> 8.00

Tell me measured pIC50 for C=CC(=O)Nc1ccc(CC(=O)N2CCC(n3ncc4c(N5CCOCC5)nc(-c5cnc(N)nc5)nc43)CC2)cc1 please.
6.00 to 7.00

Tell me measured pIC50 for C=CC(=O)N1CCc2cc(-c3cc4nc(-c5cccc(O)c5)nc(N5CCOCC5)c4s3)ccc2C1 please.
7.00 to 8.00

Tell me measured pIC50 for C=CC(=O)N1CCN(c2ccc(-c3ccnc4ccc(/C=C5\SC(=O)NC5=O)cc34)cc2)CC1 please.
7.00 to 8.00

Tell me measured pIC50 for C=CC(=O)Nc1ccc(C(=O)N2CCC(n3ncc4c(N5CCOCC5)nc(-c5ccc(NC(=O)NC)cc5)nc43)CC2)cc1 please.
6.00 to 7.00

Tell me measured pIC50 for C/C=C/C(=O)CCC(=O)N1CCC(n2nc(-c3ccc(OC)c(OC)c3)c3c(N)ncnc32)CC1 please.
< 6.00

Tell me measured pIC50 for O=C(/C=C/c1ccccc1)CCCC(=O)N1CC=C(c2cc3nc(-c4cccc5[nH]ncc45)nc(N4CCOCC4)c3s2)CC1 please.
7.00 to 8.00

Tell me measured pIC50 for C=CC(=O)N[C@H]1CCCC[C@H]1C(=O)N1CCN(Cc2cc3nc(-c4cccc5[nH]ncc45)nc(N4CCOCC4)c3s2)CC1 please.
6.00 to 7.00

Tell me measured pIC50 for C=CC(=O)NC1CCN(c2ccc(-c3cc4nc(-c5cccc6[nH]ncc56)nc(N5CCOCC5)c4s3)cc2)CC1 please.
6.00 to 7.00

Tell me measured pIC50 for O=C(/C=C/c1ccccc1)CCC(=O)N1CC=C(c2cc3nc(-c4cccc5[nH]ncc45)nc(N4CCOCC4)c3s2)CC1 please.
6.00 to 7.00

Tell me measured pIC50 for C=CC(=O)N[C@H]1CC[C@@H](C(=O)N2CCN(Cc3cc4nc(-c5cccc6[nH]ncc56)nc(N5CCOCC5)c4s3)CC2)CC1 please.
6.00 to 7.00

Tell me measured pIC50 for C=CC(=O)NCC(=O)N1CCN(Cc2cc3nc(-c4cccc(O)c4)nc(N4CCOCC4)c3s2)CC1 please.
7.00 to 8.00

Tell me measured pIC50 for C/C=C/C(=O)CCCC(=O)Nc1ccc(S(=O)(=O)Nc2cc(-c3ccc4nccc(-c5ccncc5)c4c3)cnc2OC)cc1 please.
6.00 to 7.00

Tell me measured pIC50 for C=CC(=O)NCc1ccc(OC)c(-n2c(CSc3ncnc4[nH]cnc34)nc3cccc(Cl)c3c2=O)c1 please.
< 6.00

====

# system name: PI3Kα (p110α/p85α) (Homo sapiens)
# assay text: HTRF assay, potency against active PI3Kα
# assay context: HTRF; [ATP]=50 μM, [di-C8-PIP2]=10 μM; 30 min pre-incubation; read-out: PI3Kα Inhibition
Reported IC50 values are given for each entry in this list.

Reference set, count: 4
[[record]]
compound_structure_string = "CC/C=C/C(=O)CCC(=O)N1CCN(Cc2cc3nc(-c4cccc5[nH]ncc45)nc(N4CCOCC4)c3s2)CC1"
value_kind = "IC50"
measurement = "< 10 nM"

[[record]]
compound_structure_string = "CC(C)=CC(=O)CCC(=O)N1CCC2(CC1)CN(c1cc(-c3cnc(N)nc3)nc(N3CCOCC3)c1)C2"
value_kind = "IC50"
measurement = "10 to 100 nM"

[[record]]
compound_structure_string = "C/C=C/C(=O)CCCC(=O)NCC(=O)N1CC=C(c2cc3nc(-c4cccc5[nH]ncc45)nc(N4CCOCC4)c3s2)CC1"
value_kind = "IC50"
measurement = "< 10 nM"

[[record]]
compound_structure_string = "CC(C)=CC(=O)CCC(=O)N1CCN(Cc2cc3nc(-c4cnc(N)nc4)cc(N4CCOCC4)c3s2)CC1"
value_kind = "IC50"
measurement = "100 to 1000 nM"


For PI3Kα (p110α/p85α) (Homo sapiens), give IC50 of the listed compound: C=CC(=O)N1CCc2ccc(-c3cc4nc(-c5cccc(O)c5)nc(N5CCOCC5)c4s3)cc2C1
10 to 100 nM

For PI3Kα (p110α/p85α) (Homo sapiens), give IC50 of the listed compound: C=C(C)C(=O)CCC(=O)NCC(=O)N1CCN(Cc2cc3nc(-c4cccc5[nH]ncc45)nc(N4CCOCC4)c3s2)CC1
10 to 100 nM

For PI3Kα (p110α/p85α) (Homo sapiens), give IC50 of the listed compound: C=CC(=O)Nc1ccc(OCc2cc3nc(-c4cnc(N)nc4)cc(N4CCOCC4)c3s2)cc1
100 to 1000 nM
